Each entry below lists one item and its recorded PBM binding z-score value.
Tested on: FXR:RXRa (NR concentration 270 nM, RXRa partner concentration 90 nM)
experimental_details: PBM binding z-score (relative to random genomic background probes); higher = stronger binding; sequences stand for … in GC…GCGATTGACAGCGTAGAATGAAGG
Reply with the value as a number alone.

A selection of reference data follows.
TCTAGTTGGTGAAAGGTCACACACTCGAAATGCG: 5.7
GCCATTAGTTGAAAGGGCAACCGAATGATTCTCG: 0.121

Output PBM binding z-score of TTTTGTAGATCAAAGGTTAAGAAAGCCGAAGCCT 1.35

Give the reported value of PBM binding z-score for this record: AGAATGAGGTTAAGATCACGGAAACAGAATACAT 2.44

Return the recorded PBM binding z-score value; entry: TCATATAGGTAAAGGTGCAAGTCGAACGATATGA 0.551

Output measured PBM binding z-score for this item: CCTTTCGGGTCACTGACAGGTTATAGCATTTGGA 5.71

Please report PBM binding z-score for the following sequence: TCGAGTAGGTTAGTCGGGGCATTCAGCCAACATA -0.132

Annotate the sequence TCGAGTAGGTTACCAATGGGGCATTCATCTTTCT with its measured PBM binding z-score. -0.000727

Write down PBM binding z-score measured for item ATCTCTAGGTAACAACTTCAGTGAAAGAGAGGAC 0.55

Assign PBM binding z-score to the following record: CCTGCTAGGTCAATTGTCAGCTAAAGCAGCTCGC 2.8

Could you please provide reported PBM binding z-score for CTACCAAGGTGAACAAGGTCGTAGATTACTATTC ? Thanks! 1.44

Given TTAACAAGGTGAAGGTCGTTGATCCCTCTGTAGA , respond with its PBM binding z-score. 2.23

Read the entry AGTCAAAGTTCAGGACGAGGGAACGTAAAGCACG and write its reported PBM binding z-score. 3.73

Input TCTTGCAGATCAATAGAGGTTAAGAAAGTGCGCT , output reported PBM binding z-score. 0.606

Indicate its recorded PBM binding z-score; the sequence in question is TCTATTAGTTGATTAGGGTAACCGAAACAGCGGA 0.555

Give the reported PBM binding z-score for this sequence. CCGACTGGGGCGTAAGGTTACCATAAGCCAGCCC 0.247

Supply reported PBM binding z-score belonging to this sequence: GCAGATAGGTGAAACGCAGGTAACTCAGGGTGGC -0.146

Provide measured PBM binding z-score value, entry: ACTATTAGTTTAGACGAGGGCAACCGATAGGTTG 0.453

Please supply the value of reported PBM binding z-score for the item TCGAGTACGTTAGTCGGGGCATTCAGCCAACATA -0.454

Please list PBM binding z-score recorded for the sequence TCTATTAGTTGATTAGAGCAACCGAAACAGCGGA 0.47

Input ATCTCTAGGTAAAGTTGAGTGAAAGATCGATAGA , output reported PBM binding z-score. 0.674

---

Tested on: PPARg:RXRa (NR concentration 180 nM, RXRa partner concentration 90 nM)
experimental_details: PBM binding z-score (relative to random genomic background probes); higher = stronger binding; sequences stand for … in GC…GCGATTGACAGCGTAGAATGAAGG
Binning of PBM binding z-score into classes: band A = under 1, band B = from 1 up to 4, band C = 4 and over

Please review the following examples before continuing.
GCGACTGGGGCCAAGCAGGTTACCATAAGGTTGG: band A
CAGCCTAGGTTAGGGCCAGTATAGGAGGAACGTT: band A
TAGCCTAGGTCCTTGGGCCAGTATAGTACGCATC: band A
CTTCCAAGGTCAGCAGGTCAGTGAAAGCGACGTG: band B
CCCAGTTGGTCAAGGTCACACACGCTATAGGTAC: band B
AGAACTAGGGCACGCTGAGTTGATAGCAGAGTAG: band C
CAAACTAGTTCACGAAAGGTCAAAGTCGAATGAC: band C
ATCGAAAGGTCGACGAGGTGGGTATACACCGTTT: band B

Bin? CGTCAAAGTTCAGGGTAACGTAACAGAAAGCAGC band B

Lab log: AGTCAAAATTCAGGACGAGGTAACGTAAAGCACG — assign PBM binding z-score category band A

The entry to classify is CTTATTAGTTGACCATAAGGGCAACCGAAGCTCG ; which class holds it? band A

Which PBM binding z-score category applies to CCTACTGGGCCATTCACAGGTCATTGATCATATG here? band B

State the band of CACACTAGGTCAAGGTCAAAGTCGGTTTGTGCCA band C

Consider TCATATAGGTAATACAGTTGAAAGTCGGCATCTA . To which PBM binding z-score class does it belong? band B

Lab log: ACTAGCGGGCCAAGGGTCACTCAAGATTAGTCCG — assign PBM binding z-score category band C

Sort into band: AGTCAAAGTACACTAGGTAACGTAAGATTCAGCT band B

---

Measured PBM binding z-score values are reported for all entries that follow.
Tested on: LXRa:RXRa (NR concentration 270 nM, RXRa partner concentration 90 nM)
experimental_details: PBM binding z-score (relative to random genomic background probes); higher = stronger binding; sequences stand for … in GC…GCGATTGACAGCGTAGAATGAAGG
// no unit, no text: just the number

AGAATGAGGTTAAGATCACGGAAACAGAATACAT: 1.8
ATCTTTAGGTAAGACTCAGTTCAGTGAAGAACGC: 0.502
CCTACTGGTCCAAAAAGGTCATTGATGCCGATAA: 4.66

Indicate its recorded PBM binding z-score; the sequence in question is GCGACTGGGGCAGAGCAGGTTACCATAAGGTTGG -0.389

Please look at this sequence and report its PBM binding z-score: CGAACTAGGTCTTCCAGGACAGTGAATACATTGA -0.496

Look up PBM binding z-score of TCCTGTAGATCAATAGAGGTTAAGAAAGTGCGCT and report it. 3.56

Give a short answer stating reported PBM binding z-score for TCTTGTAGATCAGCAGGTTAAGAATGCTGGCCAA . 0.0347

Look up PBM binding z-score of TAGCCTAGGTTATTGGGCCAGTATAGTACGCATC and report it. 0.0825

---

Tested on: PPARg DBDmut:RXRa IVT, anti-PPARg (DBD mutation: PPARg1 K132A/R137A, NR concentration 270 nM, RXRa partner concentration 90 nM)
experimental_details: PBM binding z-score (relative to random genomic background probes); higher = stronger binding; sequences stand for … in GC…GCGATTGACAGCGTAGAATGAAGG
measured_attribute: PBM binding z-score
The reply should be a number, written without any unit.

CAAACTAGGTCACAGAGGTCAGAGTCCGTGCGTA: 2.49
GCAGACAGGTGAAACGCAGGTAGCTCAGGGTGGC: -0.762
TCTCGTAGATCAAAGGTTAAGAAAGCCGAAGCCT: -0.063
GCTGCAAGGTCAGGTTGGTCAGCTAACGGGTACG: -0.124
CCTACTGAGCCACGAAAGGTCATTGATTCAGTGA: -0.156
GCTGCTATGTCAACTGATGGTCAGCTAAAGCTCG: -1.42

State, in one line, measured PBM binding z-score of CCGAGTAGGTTATGGGGTATTCAGGCAACGGTGA -0.421

---

System: RXRa homodimer (NR concentration 180 nM)
experimental_details: PBM binding z-score (relative to random genomic background probes); higher = stronger binding; sequences stand for … in GC…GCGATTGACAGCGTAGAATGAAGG
Where PBM binding z-score equals or exceeds 2, the correct label is Yes; where it does not, the label is No.

ATCGAAAGGTCGAGAGGTGAGTATACAGAAAGGC: Yes

Hello, I need to know if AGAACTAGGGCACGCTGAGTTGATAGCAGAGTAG has measured PBM binding z-score not below 2. Thanks! No

Check the entry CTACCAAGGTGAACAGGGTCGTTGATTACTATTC : does PBM binding z-score equal or exceed 2? No

Does PBM binding z-score meet or surpass 2 for CCTACTGGGCCATTCAGAGGTCAGTGATCATATG ? Yes

Form field: PBM binding z-score at least 2? Entry: ACTTACGGGTCAACGAGGTTATAACACGCGTATA Yes

Decide: PBM binding z-score of CCTACTGGGCGAAAAAGGTCATTGATGCCGATAA >= 2? Yes

I'd appreciate it if you could say whether TTACCAAGGTGAGCTGAAGTCGTTGATCCAACTC has PBM binding z-score at least equal to 2. No

Confirm if PBM binding z-score reported for the sequence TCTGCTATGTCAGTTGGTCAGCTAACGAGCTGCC is 2 or above. No

Is reported PBM binding z-score greater than or equal to 2 here: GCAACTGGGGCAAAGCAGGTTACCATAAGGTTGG No

// inclusive: PBM binding z-score at least 2? input: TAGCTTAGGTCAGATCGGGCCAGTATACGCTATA No

Could you tell me if the measured PBM binding z-score of CCTAGTTGGTCAAGGTCATACACGCTATAGGTAC reaches 2 or more? Yes
